Assay Target: CCK-1 receptor (Homo sapiens, UniProt P32238)
Construct: expressed in transfected cells; host or cells: CHO-K1
Assay Comment: CCK1 binding assay ([125I]-BH-CCK-8S displacement, CHO-K1 membranes)
Details: membranes of CHO-K1 cells stably transfected with the CCK-1 receptor; 20 pM [125I]-BH-CCK-8S; 0.3 μM PD-134,308 present; 60 min at 21±3° C.; read-out: CCK1 pKi (converted)
Parameter: Ki (nM)

Would you please look over these solved cases?
Compound	Ki [nM]
O=C(N[C@@H](Cc1cccc(I)c1)C(=O)O)c1ccc(I)cc1NS(=O)(=O)c1cccc2nsnc12 [Example 135]	501
O=C(N[C@@H](Cc1ccc(Cl)c(Br)c1)C(=O)O)c1ccc(Cl)cc1NS(=O)(=O)c1cccc2nccnc12 [Example 146]	251
O=C(N[C@@H](Cc1ccc(Cl)c(Br)c1)C(=O)O)c1cc(Cl)c(Cl)cc1NS(=O)(=O)c1cccc2nsnc12 [Example 147]	158

I: C[C@@H](NC(=O)c1ccc(Cl)cc1NS(=O)(=O)c1cccc2nsnc12)[C@@H](O)c1ccc(Cl)cc1 [Example 55]
II: O=C(N[C@@H](Cc1ccc(F)c(Br)c1)C(=O)O)c1ccc(I)cc1NS(=O)(=O)c1c(F)cccc1F [Example 127]
III: O=C(NC1Cc2ccccc2C1)c1ccc(Cl)cc1NS(=O)(=O)c1cccc2nsnc12 [Example 50]
IV: COC(=O)[C@H](Cc1ccc(F)c(Br)c1)NC(=O)c1ccc(I)cc1NS(=O)(=O)c1cccc2nsnc12 [Example 123]
Put the compounds in ascending order of Ki. Give the labels in the order requested.
I, IV, II, III

----------
Assay Target: CCK-1 receptor (Homo sapiens)
Construct: expressed in transfected cells; host or cells: CHO-K1
Sequence (P32238 1-428): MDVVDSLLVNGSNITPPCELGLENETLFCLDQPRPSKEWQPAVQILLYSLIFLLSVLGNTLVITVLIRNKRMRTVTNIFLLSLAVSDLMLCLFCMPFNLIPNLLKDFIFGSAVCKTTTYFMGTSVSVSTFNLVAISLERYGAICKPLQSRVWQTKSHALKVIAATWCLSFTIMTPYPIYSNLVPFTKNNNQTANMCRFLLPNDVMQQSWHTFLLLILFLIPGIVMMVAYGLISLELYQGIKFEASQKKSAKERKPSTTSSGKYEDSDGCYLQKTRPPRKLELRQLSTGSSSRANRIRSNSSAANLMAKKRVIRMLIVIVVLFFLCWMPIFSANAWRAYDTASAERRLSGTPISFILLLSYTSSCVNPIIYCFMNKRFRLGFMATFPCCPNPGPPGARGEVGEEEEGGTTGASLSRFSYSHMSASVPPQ
Assay Comment: CCK1 binding assay ([125I]-BH-CCK-8S displacement, CHO-K1 membranes)
Details: membranes of CHO-K1 cells stably transfected with the CCK-1 receptor; 20 pM [125I]-BH-CCK-8S; 0.3 μM PD-134,308 present; 60 min at 21±3° C.; read-out: CCK1 pKi (converted)
Parameter: Ki (nM)

Solved entries (count: 4):
Compound	Unit Abbrev	Ki
O=C(N[C@H](Cc1ccc(Cl)cc1)C(=O)O)c1ccc(I)cc1NS(=O)(=O)c1cccc2nccnc12	nM	39.8
CC(CNC(=O)c1ccc(I)cc1NS(=O)(=O)c1cccc2nccnc12)c1ccc(Cl)c(Cl)c1 (racemic) [Example 61]	nM	126
O=C(N[C@@H](Cc1ccc(Cl)cc1)C(=O)O)c1cc(Cl)c(Cl)cc1NS(=O)(=O)c1cccc2nsnc12	nM	316
O=C(N[C@@H](Cc1ccc(Cl)c(Cl)c1)C(=O)NCc1cccc(Cl)c1)c1ccc(Cl)cc1NS(=O)(=O)c1cccc2nsnc12	nM	100

1: O=C(O)C[C@@H](Cc1ccc(Cl)c(Cl)c1)NC(=O)c1ccc(Cl)cc1NS(=O)(=O)c1cccc2nccnc12
2: CC(CNC(=O)c1ccc(I)cc1NS(=O)(=O)c1c(F)cccc1F)c1ccc([N+](=O)[O-])cc1 (stereo not shown)
3: O=C(N[C@@H](Cc1ccc(Cl)c(I)c1)C(=O)O)c1ccc(I)cc1NS(=O)(=O)c1cccc2nccnc12
# sort list by recorded Ki, greatest to least Use the labels to give the ranking in the order requested.
1, 3, 2
(1: 794 nM, 3: 100 nM, 2: 50.1 nM)

----------
Assay Target: CCK-1 receptor (Homo sapiens)
Construct: expressed in transfected cells; host or cells: CHO-K1
Assay Comment: CCK1 binding assay ([125I]-BH-CCK-8S displacement, CHO-K1 membranes)
Details: membranes of CHO-K1 cells stably transfected with the CCK-1 receptor; 20 pM [125I]-BH-CCK-8S; 0.3 μM PD-134,308 present; 60 min at 21±3° C.; read-out: CCK1 pKi (converted)
Parameter: Ki (µM)

Molecule	Unit Abbrev	Ki
O=C(N[C@H](C(=O)O)C(c1ccc(Cl)cc1)c1ccc(Cl)cc1)c1ccc(I)cc1NS(=O)(=O)c1cccc2nsnc12 [Example 94]	µM	6.31

A: O=C(N[C@@H](Cc1ccc(Cl)c(Br)c1)C(=O)O)c1cc(Cl)c(Cl)cc1NS(=O)(=O)c1cccc2nccnc12 [Example 148]
B: COC(=O)[C@H](Cc1ccc(F)c(Br)c1)NC(=O)c1ccc(Br)cc1NS(=O)(=O)c1cccc2nccnc12 [Example 151]
C: CC(CNC(=O)c1ccc(Cl)cc1NS(=O)(=O)c1cccc2nsnc12)c1ccc(Cl)c(Cl)c1 (racemic) [Example 57]
Sort the 3 molecules by Ki; largest first, smallest last. Enter labels, ranked according to the request.
B, A, C
(B: 0.794 µM, A: 0.251 µM, C: 0.0126 µM)

----------
Assay Target: CCK2 receptor (Homo sapiens, UniProt P32239)
Construct: analyzed for ZFP expression as well as CCK2R induction upon addition of doxycycline to the culture medium; endogenous in cells
Sequence (P32239 whole entry): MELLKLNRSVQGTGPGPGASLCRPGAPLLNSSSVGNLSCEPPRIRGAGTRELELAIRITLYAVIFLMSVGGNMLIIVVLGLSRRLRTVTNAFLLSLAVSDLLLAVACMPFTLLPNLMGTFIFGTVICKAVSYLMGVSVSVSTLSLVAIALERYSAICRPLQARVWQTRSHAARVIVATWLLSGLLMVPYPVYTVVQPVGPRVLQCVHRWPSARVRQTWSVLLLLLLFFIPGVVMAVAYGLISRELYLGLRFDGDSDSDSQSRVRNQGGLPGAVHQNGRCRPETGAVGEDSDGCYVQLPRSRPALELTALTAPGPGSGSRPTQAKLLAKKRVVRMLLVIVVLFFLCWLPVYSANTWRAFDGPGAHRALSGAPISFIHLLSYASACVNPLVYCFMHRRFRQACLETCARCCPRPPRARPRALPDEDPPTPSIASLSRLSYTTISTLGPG
Assay Comment: CCK2 binding assay ([125I]-BH-CCK-8S displacement, HEKZFP membranes)
Details: membranes of doxycycline-induced HEKZFP cells; 20 pM [125I]-BH-CCK-8S; 60 min at 21±3° C.; read-out: CCK2 pKi (converted)
Parameter: Ki (nM)

Molecule	Assay Target	Ki, nM
O=C(N[C@@H](Cc1ccc(F)c(F)c1)C(=O)O)c1ccc(Cl)cc1NS(=O)(=O)c1cccc2nccnc12	CCK2 receptor (Homo sapiens, UniProt P32239)	63.1
O=C(N[C@@H](Cc1ccc(Cl)c(Cl)c1)C(=O)NCc1ccccc1)c1ccc(Cl)cc1NS(=O)(=O)c1cccc2nsnc12	CCK2 receptor (Homo sapiens, UniProt P32239)	631
CC(Cc1ccc(Cl)cc1)NC(=O)c1ccc(Br)cc1NS(=O)(=O)c1cccc2nsnc12 (racemic)	CCK2 receptor (Homo sapiens, UniProt P32239)	2510
CN(CCc1ccccc1)C(=O)c1ccc(Br)cc1NS(=O)(=O)c1cccc2nsnc12	CCK2 receptor (Homo sapiens, UniProt P32239)	100
CC(CNC(=O)c1ccc(I)cc1NS(=O)(=O)c1cccc2nccnc12)c1ccc(Cl)c(Cl)c1 (centres unmarked) [Example 40]	CCK2 receptor (Homo sapiens, UniProt P32239)	316
COC(=O)[C@H](Cc1ccc(F)c(Br)c1)NC(=O)c1ccc(I)cc1NS(=O)(=O)c1c(F)cccc1F	CCK2 receptor (Homo sapiens, UniProt P32239)	631

I: O=C(N[C@H](Cc1ccc(Cl)c(Cl)c1)C(=O)O)c1ccc(I)cc1NS(=O)(=O)c1cccc2nccnc12
II: COC(=O)[C@H](Cc1ccc(F)c(Br)c1)NC(=O)c1ccc(Cl)cc1NS(=O)(=O)c1cccc2nccnc12
Decide: I or II , by lowest recorded Ki. To answer, give the label that identifies your chosen option.
II

P: CC(CNC(=O)c1ccc(Cl)cc1NS(=O)(=O)c1cccc2nccnc12)c1ccc(Cl)c(Cl)c1 (racemic)
Q: O=C(N[C@@H](Cc1ccccc1)C(=O)O)c1cc(Cl)c(Cl)cc1NS(=O)(=O)c1cccc2nsnc12
R: O=C(N[C@H](Cc1ccc(Cl)cc1)C(=O)O)c1cc(Cl)c(Cl)cc1NS(=O)(=O)c1cccc2nsnc12
S: O=C(N[C@@H](Cc1ccc(Cl)c(Cl)c1)C(=O)O)c1cc(Cl)c(Cl)cc1NS(=O)(=O)c1cccc2nsnc12
Give the ascending ranking of the items by reported Ki. Give the labels in the order specified.
Q, S, R, P

1: C[C@@H](NC(=O)c1ccc(I)cc1NS(=O)(=O)c1cccc2nsnc12)[C@@H](O)c1cccc(Br)c1
2: O=C(N[C@H](Cc1ccc(Cl)cc1)C(=O)O)c1cc(Cl)ccc1NS(=O)(=O)c1cccc2nsnc12
Endpoint returns whichever of 1 and 2 has the numerically higher Ki. Pick one and reply with its label.
2

----------
Assay Target: CCK-1 receptor (Homo sapiens)
Construct: expressed in transfected cells; host or cells: CHO-K1
Sequence (P32238 1-428): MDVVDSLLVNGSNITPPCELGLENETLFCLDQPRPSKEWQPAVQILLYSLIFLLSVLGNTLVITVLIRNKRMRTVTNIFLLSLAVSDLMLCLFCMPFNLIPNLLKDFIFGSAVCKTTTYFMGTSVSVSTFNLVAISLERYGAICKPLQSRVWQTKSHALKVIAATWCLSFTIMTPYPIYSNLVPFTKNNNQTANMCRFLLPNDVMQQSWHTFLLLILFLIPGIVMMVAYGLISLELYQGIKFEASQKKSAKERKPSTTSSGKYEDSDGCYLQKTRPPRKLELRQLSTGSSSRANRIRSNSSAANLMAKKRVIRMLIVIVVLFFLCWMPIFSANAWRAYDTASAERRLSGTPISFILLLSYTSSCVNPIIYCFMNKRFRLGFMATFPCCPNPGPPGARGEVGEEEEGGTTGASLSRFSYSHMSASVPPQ
Assay Comment: CCK1 binding assay ([125I]-BH-CCK-8S displacement, CHO-K1 membranes)
Details: membranes of CHO-K1 cells stably transfected with the CCK-1 receptor; 20 pM [125I]-BH-CCK-8S; 0.3 μM PD-134,308 present; 60 min at 21±3° C.
Parameter: CCK1 pKi

Compound	CCK1 pKi
O=C(NCC(c1ccc(Cl)cc1)c1ccc(Cl)cc1)c1ccc(Cl)cc1NS(=O)(=O)c1cccc2nsnc12	7.5
C[C@H](CNC(=O)c1ccc(Br)cc1NS(=O)(=O)c1cccc2nsnc12)c1ccccc1	7.2
C[C@@H](CNC(=O)c1ccc(Br)cc1NS(=O)(=O)c1cccc2nsnc12)c1ccccc1	7.1
CC(C)(c1ccc(Cl)cc1)[C@H](NC(=O)c1ccc(Cl)cc1NS(=O)(=O)c1cccc2nsnc12)C(=O)O	5.4
O=C(N[C@@H](Cc1ccc(F)c(Br)c1)C(=O)O)c1ccc(I)cc1NS(=O)(=O)c1cccc2nsnc12	6.8
O=C(N[C@@H](Cc1ccc(Cl)c(Br)c1)C(=O)O)c1ccc(Br)cc1NS(=O)(=O)c1cccc2nccnc12	7.0
O=C(N[C@@H](Cc1ccc(F)c(Br)c1)C(=O)O)c1ccc(Br)cc1NS(=O)(=O)c1cccc2nsnc12	6.6
C[C@H](c1ccc(Cl)c(Cl)c1)[C@H](NC(=O)c1ccc(Cl)cc1NS(=O)(=O)c1cccc2nsnc12)C(=O)O	6.3
O=C(N[C@@H](Cc1ccc(Cl)c(Cl)c1)C(=O)O)c1ccc(I)cc1NS(=O)(=O)c1cccc2nsnc12	6.7
O=C(N[C@@H](Cc1ccc(F)c(Br)c1)C(=O)O)c1ccc(Br)cc1NS(=O)(=O)c1cccc2nccnc12	6.5
C[C@@H](NC(=O)c1ccc(Cl)cc1NS(=O)(=O)c1cccc2nsnc12)[C@@H](O)c1cccc(Br)c1	7.6
O=C(N[C@@H](Cc1ccc(F)c(Br)c1)C(=O)O)c1ccc(Cl)cc1NS(=O)(=O)c1cccc2nsnc12	6.6
O=C(N[C@@H](Cc1ccc(Cl)c(Cl)c1)C(=O)O)c1ccc(Cl)cc1NS(=O)(=O)c1cccc2nsnc12	6.6
CC(CNC(=O)c1ccc(Br)cc1NS(=O)(=O)c1cccc2nsnc12)c1ccccc1 (stereo not shown)	7.1
O=C(N[C@@H](Cc1ccc(Cl)c(Br)c1)C(=O)O)c1ccc(Br)cc1NS(=O)(=O)c1cccc2nsnc12	6.9
O=C(N[C@@H](Cc1ccc(F)c(Br)c1)C(=O)O)c1ccc(Cl)cc1NS(=O)(=O)c1cccc2nccnc12	6.4
